// data source = ChEMBL document CHEMBL3988442

Tested on: Wolbachia pipientis
ASSAY NOTES: Anti-Wolbachia Cell-Based Screen
Assay type: functional
Set-up: scale not given: in the data most compounds retested in dose-response had high values
EXPERIMENTAL CONDITIONS: 5 µM
Hit rate of the full screen: of about 48,000 compounds, about 13,000 (27%) showed an effect of 50% or more. The list shows a part of the results.
PROPERTY NAME: Percent Effect (%)
Use % as the unit, but write only the number.

1) CC(C)NC(=O)c1ccc2c(c1)nc1n2CCN(Cc2ccccc2)C1 = 112.9

Turning now to a further compound:
Ask | What Percent Effect value was documented for this compound, `CCOCC(=O)N1C[C@@H]2COC[C@H](c3nc(C)no3)[C@@H]2C1` ?
Reply | 1.076
